- ASSAY NAME: in vivo
- COND: male, Wistar, rat, plasma, po, 15 mg/kg, T1/2, diltiazem 15 mg/kg p.o with water (control)
PARAMETER: half-life

**Q:** Field request: half-life | item: COc1ccc([C@@H]2Sc3ccccc3N(CCN(C)C)C(=O)[C@@H]2OC(C)=O)cc1
**A:** 29.4 min

----------
- ASSAY NAME: in vivo
- COND: male, Wistar, rat, plasma, po, 15 mg/kg, AUC0–24, diltiazem 15 mg/kg p.o with water (control)
PARAMETER: AUC(0-t)
The answer consists of two parts: a number and, after it, its unit.

**Q:** Field request: AUC(0-t) | item: COc1ccc([C@@H]2Sc3ccccc3N(CCN(C)C)C(=O)[C@@H]2OC(C)=O)cc1
**A:** 43.6 ng·h/mL

The origin of these recorded values is paper PMC6052858.
